Assay: gradient 5% acetonitrile 3 min, to 50% in 2 min, to 85% in 15 min, held 3 min, 100 µL/min
Conditions: column: Zorbax Extend-C18 2.1 x 50 mm; eluents: water / acetonitrile, 0.1% formic acid

{"columns": ["Compound", "RP-LC retention time, s"],
 "data": [
  ["COc1ccc(-c2noc(C3CCCN3C(=O)c3cc(F)ccc3F)n2)cc1OC (stereo not drawn)", 900],
  ["COc1ccc(NS(=O)(=O)c2c[nH]c3ncccc23)cc1Cl", 729],
  ["O=C(Cn1ccc2sccc2c1=O)NCc1ccccc1F", 785],
  ["CCN1CCCn2cc(S(=O)(=O)Nc3ccccc3)cc2C1=O", 666],
  ["N#Cc1cccc(CN2CCC(c3nncn3-c3ccccc3)CC2)c1", 584],
  ["Cc1ccc(CC(=O)NC2CCN(c3cc(-c4ccc(Cl)cc4)[nH]n3)C2)cc1 (stereo not drawn)", 807],
  ["Cc1nc(N2CCN(c3ccccn3)CC2)nc2c1C(=O)CC(C)(C)C2", 677],
  ["CCCN(CCC)C1Cc2cc(OC)c(OC)cc2C1", 680]
]}

* * *

Test: gradient 5% acetonitrile 3 min, to 50% in 2 min, to 85% in 15 min, held 3 min, 100 µL/min
Conditions: column: Zorbax Extend-C18 2.1 x 50 mm; eluents: water / acetonitrile, 0.1% formic acid
# RP-LC retention time >= 800 s gives label 1, anything below gives label 0

{"columns": ["Molecule", "Qualitative Label"],
 "data": [
  ["CC1=C(c2cccc(Cl)c2)S(=O)(=O)N=C1N1CCCN(C(=O)C2CC2)CC1", "label 0"],
  ["COc1ccc(S(=O)(=O)Nc2cc(-c3cn4cccc(C)c4n3)ccc2C)cc1OC", "label 0"],
  ["CC(c1ccccc1)n1cnc2c(oc3ccccc32)c1=O (stereo not drawn)", "label 1"],
  ["Cc1cc(C)cc(NC(=O)Cn2cc(-c3nnc(C)o3)c3ccccc32)c1", "label 1"],
  ["O=C(NCc1ccco1)c1c(O)c2cccnc2n(Cc2ccccc2)c1=O", "label 1"],
  ["O=C(NCC(=O)N1CCOC(c2ccccc2)C1)c1ccc(-c2ccccc2)cc1 (stereo not drawn)", "label 1"],
  ["Cc1cc(C)cc(C(=O)OC2C[C@H]3CC[C@@H](C2)N3C)c1 (stereo partly drawn)", "label 0"]
]}

* * *

Assay: gradient 5% acetonitrile 3 min, to 50% in 2 min, to 85% in 15 min, held 3 min, 100 µL/min
Conditions: column: Zorbax Extend-C18 2.1 x 50 mm; eluents: water / acetonitrile, 0.1% formic acid

{"columns": ["Molecule", "RP-LC retention time / s"],
 "data": [
  ["O=C(O)c1cnc(NCc2cccnc2)nc1-c1cccnc1", 875],
  ["CCC1CCCCN1C(=O)Cc1c(C)nn(-c2nc(-c3ccc(C)cc3)cs2)c1C (stereo not given)", 1380],
  ["O=C(Oc1ccc2c(c1)O/C(=C\\c1ccncc1)C2=O)c1ccc2c(c1)OCO2", 725],
  ["CCCCCCNC(=O)C1CC(=O)N(CCc2c[nH]c3ccc(C)cc23)C1 (stereo not given)", 864],
  ["COC(=O)c1ccc(Cl)cc1NC(=O)N1CCc2nc[nH]c2C1", 644],
  ["Cc1ccc2nc(-c3cccc(S(=O)(=O)N4CCCC4)c3)cn2c1", 657],
  ["COc1ccc(NC(=O)Cn2nc3c(Oc4ccccc4C)nccn3c2=O)cc1", 790],
  ["COc1ccccc1-c1noc(C2CCCN2C(=O)Cc2ccc(F)cc2)n1 (stereo not given)", 866],
  ["O=C(Cc1cccc(F)c1)NC1CCN(c2cc(-c3cccs3)[nH]n2)C1 (stereo not given)", 710],
  ["Fc1ccc(-c2nc(-c3ccc(-n4ccnc4)nc3)no2)cc1", 732],
  ["CCOc1ccc(-c2nc(-c3cccc(-c4ccn[nH]4)c3)no2)cc1", 999],
  ["COc1ccccc1S(=O)(=O)NCCc1ccsc1", 824],
  ["O=C(c1ccco1)N1CCc2c([nH]c3ccccc23)C1c1ccc(F)cc1 (stereo not given)", 1080],
  ["Cc1oc2ccn(Cc3ccccc3F)c(=O)c2c1C(=O)NC1CCCCC1", 1160],
  ["Cc1ccc(-c2cc3n(n2)CCCN(C(=O)c2ccoc2)C3)cc1", 810],
  ["CCOC(=O)c1ccc(Nc2c(C(=O)N3CCC(C)CC3)cnc3nc(C)ccc23)cc1", 675],
  ["COc1ccc(NS(=O)(=O)c2c(C)sc(C)c2-c2cc(C(F)(F)F)on2)cc1", 1110],
  ["O=C(C1CCOC1)N1CCC(CCOc2cccc(F)c2)CC1 (stereo not given)", 834],
  ["O=C(Nc1ccc2nc3n(c(=O)c2c1)CCCC3)c1cc2ccccc2[nH]1", 720],
  ["CC(C)n1cnc(S(=O)(=O)N2CCC(C(=O)NCc3ccccc3Cl)CC2)c1", 744],
  ["O=C(c1cn2ccccc2n1)N1CCN(c2ccccc2F)CC1", 652],
  ["Cc1cccc(-c2noc(C3CCCN3C(=O)NC3CCCC3)n2)c1 (stereo not given)", 955],
  ["O=S(=O)(c1ccc(Br)s1)N1CCN(S(=O)(=O)C2CC2)CC1", 854],
  ["CCN(C(=O)CCCC(=O)OC)c1nc(-c2ccc(C)cc2)cs1", 1180],
  ["CN(c1ccc(F)cc1)S(=O)(=O)N1CCCC(C(=O)N2CCN(c3ccccn3)CC2)C1 (stereo not given)", 660],
  ["Cc1c(C(=O)N2CCN(c3ccccn3)CC2)sc2nc3n(c(=O)c12)CCC3", 571],
  ["COc1ccc(CNC(=O)c2nsc(C(=O)NCCc3ccc(OC)c(OC)c3)c2N)cc1", 922],
  ["Cc1ccc(NC(=O)NCC(c2cccnc2)c2cn(C)c3ccccc23)cc1 (stereo not given)", 816],
  ["Nc1cc(C2CCN(S(=O)(=O)Cc3ccc(F)cc3)CC2)no1", 747],
  ["O=C(NC1CCN(c2cc(-c3ccc(F)cc3)[nH]n2)C1)c1ccc(F)cc1Cl (stereo not given)", 740],
  ["CNC(=O)c1cc2c(s1)N(CC1CC1)CCCC2", 889],
  ["Cn1cc(CCN2CCN(S(=O)(=O)c3cccs3)CC2)c2cccnc21", 604],
  ["Cc1ccc(S(=O)(=O)N2CCOCC2)cc1[N+](=O)[O-]", 751],
  ["Cc1oc(-c2ccc(NC(=O)c3ccc(Br)o3)cc2)nc1Cn1cccn1", 901],
  ["Cn1c(=O)c2cc(C(=O)N3CCN(c4ccc(F)cc4)CC3)sc2n(C)c1=O", 796]
]}

* * *

Assay: gradient 5% acetonitrile 3 min, to 50% in 2 min, to 85% in 15 min, held 3 min, 100 µL/min
Details: column: Zorbax Extend-C18 2.1 x 50 mm; eluents: water / acetonitrile, 0.1% formic acid
Short version: RP-LC retention time at least 800 s is Fulfilled, less is Not fulfilled.

{"columns": ["Molecule", "Qualitative Label"],
 "data": [
  ["CCNC(=O)C1CCCN(C(=O)Nc2ccc(NC(=O)Nc3ccc(OC)cc3)cc2)C1 (stereo not drawn)", "Not fulfilled"],
  ["O=C(NCc1ccco1)c1cnn2c(-c3ccc(Cl)cc3)ccnc12", "Fulfilled"],
  ["Cc1nc(-c2csc(S(=O)(=O)N3CCCC(C(=O)NCCc4cccs4)C3)c2)no1 (stereo not drawn)", "Fulfilled"],
  ["O=C(CN1CCN(c2ccccn2)CC1)N1N=CCC1c1ccccc1 (stereo not drawn)", "Not fulfilled"],
  ["O=C(COc1ccccc1[N+](=O)[O-])N(Cc1ccccc1)Cc1ccccc1", "Fulfilled"],
  ["CCCN1C(=O)COc2ccc(-c3noc(-c4cccc(OC)c4)n3)cc21", "Fulfilled"],
  ["CCc1nc2c(=O)n(CC(=O)N3CCN(c4ccccc4)CC3)nc(C)c2s1", "Not fulfilled"],
  ["Cc1ccnn1-c1ccc(SCC(=O)Nc2cccc(F)c2)nn1", "Fulfilled"],
  ["Cc1ccc(N2CCN(C(=O)c3ccc(Cn4cncn4)cc3)CC2)c(C)c1", "Fulfilled"],
  ["CC(C)NC(=O)C1CCC(=O)N1C1CCN(C(=O)C2CCC2)CC1 (stereo not drawn)", "Not fulfilled"],
  ["COc1ccc2oc(-c3csc(NC(=O)c4ccc(N5C(=O)CCC5=O)cc4)n3)cc2c1", "Fulfilled"],
  ["Cc1ccc(NC(=O)C2CC(=O)N(c3n[nH]c4cccc(F)c34)C2)nc1 (stereo not drawn)", "Not fulfilled"],
  ["O=C(C1CC(=O)N(c2n[nH]c3ccccc23)C1)N1CCC(c2nc3ccccc3[nH]2)CC1 (stereo not drawn)", "Not fulfilled"],
  ["O=C([C@@H]1C[C@H](F)CN1S(=O)(=O)Cc1ccccc1)N1CCOCC1", "Not fulfilled"],
  ["CC(=O)NCc1ccc(-c2noc(-c3ccc(Br)cc3)n2)s1", "Fulfilled"],
  ["COc1ccc2nc(C(=O)NCc3ccccc3Cl)cn2n1", "Fulfilled"],
  ["O=C(COc1ccccc1F)NCC1CCN(Cc2cccs2)CC1", "Not fulfilled"],
  ["CCOCCCNC(=O)C1c2cc(OC)c(OC)cc2C(=O)N2CCc3ccccc3C12 (stereo not drawn)", "Not fulfilled"],
  ["CCc1nn2c(CNC(=O)c3cc(Cl)ccc3OC)c(C)nc2s1", "Not fulfilled"],
  ["CCC(=O)N1CCc2cc(N3CC(C(=O)Nc4ccc(F)c(F)c4)CC3=O)ccc21 (stereo not drawn)", "Not fulfilled"],
  ["Cc1ccccc1-c1cn(CC(=O)NCc2ccc(F)c(Cl)c2)nc1N1CCOCC1", "Fulfilled"],
  ["CCc1nc2cc(-c3noc(-c4ccc(F)cc4)n3)ccc2o1", "Fulfilled"],
  ["Cc1ccsc1C(=O)Nc1ccc(-c2nc(Cn3cccn3)c(C)o2)cc1", "Fulfilled"],
  ["Clc1cncc(N2CCNCC2)n1", "Not fulfilled"],
  ["CCN1C(=O)COc2cc(-c3noc(C(=O)N4CCN(C5CCCCC5)CC4)n3)ccc21", "Not fulfilled"],
  ["Cc1ccc(S(=O)(=O)N(C)c2ccccc2)s1", "Fulfilled"],
  ["CC(C)CCN1C(=O)C2(NCCc3c2[nH]c2ccccc32)c2cc(Br)ccc21 (stereo not drawn)", "Fulfilled"],
  ["COC(=O)c1cn(NC(=O)c2cc(-c3ccco3)nc3ccccc23)c(=O)c2ccccc12", "Fulfilled"],
  ["COC(=O)c1ccccc1Nc1c(-c2ccc(C)cc2)nc2cnc(Br)cn12", "Fulfilled"]
]}
